- Species on record: Cavia porcellus
- Protocol Description: The inhibitory concentration of compound on guinea pig portal vein
- Format: functional
Property: pIC50
Answer as the number alone; pIC50 is minus log10 of concentration in mol/L.

QUERY: Value lookup for pIC50; key = N#Cc1cccc(C2C3=C(CCCC3=O)NC3=C2C(=O)CCC3)c1
RESULT: 6.12

---

- Target System: Small conductance calcium-activated potassium channel protein 1 (Homo sapiens, UniProt Q92952)
- Sequence (Q92952 whole entry): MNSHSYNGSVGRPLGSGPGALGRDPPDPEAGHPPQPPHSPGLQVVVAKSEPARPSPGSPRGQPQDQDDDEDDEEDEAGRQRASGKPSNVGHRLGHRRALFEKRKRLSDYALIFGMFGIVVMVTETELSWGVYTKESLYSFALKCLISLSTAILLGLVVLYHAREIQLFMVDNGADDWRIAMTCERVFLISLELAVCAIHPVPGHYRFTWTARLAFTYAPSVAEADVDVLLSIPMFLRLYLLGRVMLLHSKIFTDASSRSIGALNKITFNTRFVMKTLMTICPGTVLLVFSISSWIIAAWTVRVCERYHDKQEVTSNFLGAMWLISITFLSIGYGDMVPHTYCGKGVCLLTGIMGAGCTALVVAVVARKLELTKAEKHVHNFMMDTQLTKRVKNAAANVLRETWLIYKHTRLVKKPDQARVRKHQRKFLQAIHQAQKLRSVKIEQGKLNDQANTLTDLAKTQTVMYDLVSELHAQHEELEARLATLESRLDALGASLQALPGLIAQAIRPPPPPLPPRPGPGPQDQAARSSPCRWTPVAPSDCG
- Protocol Description: Inhibition of hSK1 calcium activated potassium channel (SKCa channel)
Property: pIC50
Answer as the number alone; pIC50 is minus log10 of concentration in mol/L.

QUERY: Value lookup for pIC50; key = c1cc2cc(c1)C[n+]1ccc(c3ccccc31)NCc1ccc(cc1)CNc1cc[n+](c3ccccc13)C2
RESULT: 8.52
